The following binders are shown together with reported Kd values.
# ASSAYED_TARGET: T1, cynomolgus monkey ENPP3 (cynomolgus monkey, UniProt A0A2K5TKP4 46-874)
# T1 construct: also called cyno ENPP3
# T1 sequence: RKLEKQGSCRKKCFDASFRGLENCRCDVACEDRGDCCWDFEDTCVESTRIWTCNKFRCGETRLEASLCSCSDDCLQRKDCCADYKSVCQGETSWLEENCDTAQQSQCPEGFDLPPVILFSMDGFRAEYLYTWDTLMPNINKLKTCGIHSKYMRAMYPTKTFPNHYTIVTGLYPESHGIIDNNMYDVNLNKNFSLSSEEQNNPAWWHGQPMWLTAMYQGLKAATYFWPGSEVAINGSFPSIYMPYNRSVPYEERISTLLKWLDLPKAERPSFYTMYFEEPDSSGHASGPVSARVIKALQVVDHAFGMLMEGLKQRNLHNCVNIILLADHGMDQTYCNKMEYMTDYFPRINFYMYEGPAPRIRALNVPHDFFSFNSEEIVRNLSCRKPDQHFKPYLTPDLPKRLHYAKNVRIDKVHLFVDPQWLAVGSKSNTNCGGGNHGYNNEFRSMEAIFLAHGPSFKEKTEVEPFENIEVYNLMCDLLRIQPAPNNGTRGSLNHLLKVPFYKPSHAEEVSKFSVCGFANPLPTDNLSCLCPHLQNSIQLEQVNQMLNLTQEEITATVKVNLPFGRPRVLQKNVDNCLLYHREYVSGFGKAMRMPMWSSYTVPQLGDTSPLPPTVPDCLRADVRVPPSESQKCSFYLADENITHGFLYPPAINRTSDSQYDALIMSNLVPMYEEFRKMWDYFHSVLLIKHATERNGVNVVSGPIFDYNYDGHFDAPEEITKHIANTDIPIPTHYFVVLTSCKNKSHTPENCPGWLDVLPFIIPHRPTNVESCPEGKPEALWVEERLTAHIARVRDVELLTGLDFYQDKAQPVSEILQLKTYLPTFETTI
# ASSAY_INFO: binding affinity to cyno ENPP3; method not stated; biphasic

NPP3B107 (antibody, V domains shown, mAb from Ablexis Kappa mice) VH: EVQLVESGGGLVKPGGSLRLSCAASGFIFSDYSMNWVRQAPGKGLEWVSSISSGSSYIYYADSLKGRFTISRDNAKNSLYLQMSSLRAEDTAVYYCVRGLDYFDYWGQGALVTVSS VL: DIQMTQSPSFLSASVGDRVTITCRASQDISNYLAWYQQKPGRAPKLLIYVASTLQSGVPSRFSGSGSGTEFTLTISSLQPEDFATYYCQQLNSYPRTFGQGTKVEIK | ~20 nM
NPP3B60 (antibody, V domains shown, mAb from Ablexis Kappa mice) VH: QVQLVQSGAEVKKPGESLKISCKGSGYGFTNYWIGWVRQMPGKGLEWMGIIYPSDSNTRYSPSFQGQVTISADKSINTAYLQWSSLKASDTAMYYCTRQNYYYYTMDVWGQGTTVTVSS VL: DIQMTQSPSFLSASVGDRVTITCRASQVIRSYLAWYQQKPGKAPKLLIYGASTLQSGFPSRFSGSGSGTEFTLTISSLQPEDFATYYCQQLNSYPRTFGQGTKVEIK | ~1 nM

Lab note: next binder to report on.
Q) Entry NPP3B64 (antibody, V domains shown, mAb from Ablexis Kappa mice) VH: QVQLVQSGAEVKKPGASVKVSCKASGYTFTTYYIHWVRQAPGQGLEWMGIINPSGGSTNYAQKFQGRVTMTRDTSTRIVYMELGSLRSEDTAVYYCARDYYYYYYGMDVWGQGTTVTVSS VL: DIVMTQSPLSLPVTLGQPASISCRSSQSLVRNGGYTYLNWLQQRPGQPPRLLIYQISNRFSGVPDRFSGSGAGTDFTLTISRVEAEDVGVYYCMQATQFPHTFGQGTKLEIK needs its Kd filled in; supply it.
A) ~2 nM
